Values were extracted from patent US10994015B2.

- target-system: EGFR L858R/T790M (Homo sapiens (Human), UniProt P00533, L858R/T790M)
- Sequence (P00533 25-1210 T790M/L858R): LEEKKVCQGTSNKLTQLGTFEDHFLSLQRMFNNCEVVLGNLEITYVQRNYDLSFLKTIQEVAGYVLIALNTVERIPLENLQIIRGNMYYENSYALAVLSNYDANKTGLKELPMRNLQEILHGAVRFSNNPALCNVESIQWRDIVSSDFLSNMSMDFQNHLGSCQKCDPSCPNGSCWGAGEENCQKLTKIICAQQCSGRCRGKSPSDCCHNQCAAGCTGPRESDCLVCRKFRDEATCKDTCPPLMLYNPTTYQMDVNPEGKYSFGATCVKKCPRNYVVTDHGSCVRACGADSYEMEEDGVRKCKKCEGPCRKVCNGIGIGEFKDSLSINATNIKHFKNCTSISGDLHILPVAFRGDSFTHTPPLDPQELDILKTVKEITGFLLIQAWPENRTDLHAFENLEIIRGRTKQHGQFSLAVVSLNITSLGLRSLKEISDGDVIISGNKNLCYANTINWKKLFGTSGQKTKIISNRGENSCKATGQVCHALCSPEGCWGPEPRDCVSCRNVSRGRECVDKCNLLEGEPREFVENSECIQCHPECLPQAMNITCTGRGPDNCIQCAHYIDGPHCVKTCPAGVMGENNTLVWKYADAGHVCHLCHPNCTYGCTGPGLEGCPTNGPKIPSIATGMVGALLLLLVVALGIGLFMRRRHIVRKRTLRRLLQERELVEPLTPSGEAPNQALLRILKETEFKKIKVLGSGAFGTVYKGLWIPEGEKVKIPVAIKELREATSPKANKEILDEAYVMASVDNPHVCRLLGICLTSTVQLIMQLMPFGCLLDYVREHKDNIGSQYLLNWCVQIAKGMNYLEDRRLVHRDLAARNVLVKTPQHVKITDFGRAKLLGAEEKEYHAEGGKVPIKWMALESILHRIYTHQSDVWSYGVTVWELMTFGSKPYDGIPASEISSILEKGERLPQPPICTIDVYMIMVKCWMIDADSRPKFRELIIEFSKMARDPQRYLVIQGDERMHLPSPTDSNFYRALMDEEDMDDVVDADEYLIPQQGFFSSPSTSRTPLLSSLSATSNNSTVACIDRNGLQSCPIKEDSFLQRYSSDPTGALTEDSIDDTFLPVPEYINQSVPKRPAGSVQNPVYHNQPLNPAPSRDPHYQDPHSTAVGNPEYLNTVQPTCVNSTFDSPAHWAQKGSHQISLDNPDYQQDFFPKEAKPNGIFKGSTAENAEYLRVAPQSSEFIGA
- method-notes: TR-FRET assay for ERBB kinases
- measurement-setup: geometric mean if measured more than once
pIC50: −log10 of the molar value.

>  <molecule>
COC1CCN(c2nccc(Nc3cc4c(cn3)nc(COCCN3CCN(c5ccc(OCCCOCC(=O)N[C@H](C(=O)N6C[C@H](O)C[C@H]6C(=O)NCc6ccc(-c7scnc7C)cc6)C(C)(C)C)cc5)CC3)n4C(C)C)n2)CC1

>  <target-system>
EGFR L858R/T790M (Homo sapiens (Human), UniProt P00533, L858R/T790M)

>  <pIC50>
6.26

$$$$
>  <molecule>
Cc1ncsc1-c1ccc([C@H](C)NC(=O)[C@@H]2C[C@@H](O)CN2C(=O)[C@@H](NC(=O)CN2CCN(CCCC#Cc3cccc4c3C(=O)N(C(C(=O)Nc3nccs3)c3cc(F)ccc3O)C4)CC2)C(C)(C)C)cc1 (stereo partly drawn)

>  <target-system>
EGFR L858R/T790M (Homo sapiens (Human), UniProt P00533, L858R/T790M)

>  <pIC50>
5.33

$$$$
>  <molecule>
O=C1CCC(N2C(=O)c3cccc(NCCOCCOCCOCCOCCOCCOCCCc4cccc5c4C(=O)N(C(C(=O)Nc4nccs4)c4cc(F)ccc4O)C5)c3C2=O)C(=O)N1 (stereo not drawn)

>  <target-system>
EGFR L858R/T790M (Homo sapiens (Human), UniProt P00533, L858R/T790M)

>  <pIC50>
4.70

$$$$
